EC50 (read off the curve): recorded values
Target: T1, cynomolgus monkey SIRPγ on CHO cells (cynomolgus monkey, UniProt Q9P1W8 29-386 (human entry))
T1 construct: also called Cyno SIRPγ CHO
T1 chain: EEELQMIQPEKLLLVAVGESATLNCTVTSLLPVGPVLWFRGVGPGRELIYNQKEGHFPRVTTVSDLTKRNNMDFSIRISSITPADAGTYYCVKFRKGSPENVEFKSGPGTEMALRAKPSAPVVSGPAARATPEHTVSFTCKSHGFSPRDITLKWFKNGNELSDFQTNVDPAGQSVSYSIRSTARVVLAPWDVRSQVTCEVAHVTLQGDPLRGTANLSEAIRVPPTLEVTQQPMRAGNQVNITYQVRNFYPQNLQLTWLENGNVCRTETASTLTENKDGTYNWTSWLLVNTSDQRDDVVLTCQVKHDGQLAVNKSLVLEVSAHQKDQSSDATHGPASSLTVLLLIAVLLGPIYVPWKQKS
Test: flow cytometry, CHO transfectants, anti-human IgG

The following binders have reported results that may help.
{"binder": "Antibody 57 (antibody, V domains shown) VH: QVQLVQSGAEVKKPGASVKVSCKASGYTFTSYYMHWVRQAPGQGLEWMGWINPNSGNAGFAQKFQGRVTMTRDTSTSTVYMELSSLRSEDTAVYYCARGPVYSYGPFDYWGQGTLVTVSS VL: DIQMTQSPSSLSASVGDRVTITCRASQGISTYLAWYQQKPGKAPKLLIYAASTLQSGVPSRFSGSGSGTDFTLTISSLQPEDFATYYCQQSHSAPITFGQGTKVEIK", "EC50 (read off the curve)": "~0.4 µg/mL"}
{"binder": "Antibody 69 (antibody, V domains shown) VH: QVQLVQSGAEVKKPGASVKVSCKASGYTFTSYYMHWVRQAPGQGLEWMGWMNPNSDNTGYAQKFQGRVTMTRDTSTSTVYMELSSLRSEDTAVYYCARVGVGYGYYYYGMDVWGQGTTVTVSS VL: DIQMTQSPSSLSASVGDRVTITCRAGQSIGDYLNWYQQKPGKAPKLLIYAASSLQSGVPSRFSGSGSGTDFTLTISSLQPEDFATYYCQQSYSTPWTFGQGTKVEIK", "EC50 (read off the curve)": "~0.6 µg/mL"}

API: the following record is the query input.
Task item: State the recorded EC50 (read off the curve) for this entry: Antibody 60 (antibody, V domains shown) VH: EVQLLESGGGLVQPGGSLRLSCAASGFTLGSYWMHWVRQAPGKGLEWVSLISWDGGSTYYADSVKGRFTISRDNSKNTLYLQMNSLRAEDTAVYYCAKGPWVGYSGYDLNYYYYGMDVWGQGTTVTVSS VL: DIQMTQSPSSLSASVGDRVTITCRASQDIRRALAWYQQKPGKAPKLLIYAASSLQSGVPSRFSGSGSGTDFTLTISSLQPEDFATYYCLQHNSYPPTFGQGTKLEIK
Reply: ~0.7 µg/mL
